- METHOD_DESCRIPTION: Scavenging activity against NO generation in human Chang liver cells assessed as inhibition of NOR1-activation at 350 nM relative to NOR1
- Format: functional
molecules and their reported Activity

Solved cases (2 shown):
CC(C)=CCC[C@@H](C)[C@H]1CC[C@@]2(C)[C@@H]3CC[C@H]4[C@H](C)[C@@H](O)CC[C@@]45C[C@@]35CC[C@]12C
1.8
CC(C)CCC[C@@H](C)[C@H]1CC[C@@]2(C)[C@@H]3CC[C@H]4C(C)(C)[C@@H](O)CC[C@@]45C[C@@]35CC[C@]12C
1.8

Now consider the entry below.
Problem: Identify the reported Activity for the following entry. C=C(C)[C@H](O)CC[C@@H](C)[C@H]1CC[C@@]2(C)[C@@H]3CC[C@H]4C(C)(C)[C@@H](O)CC[C@@]45C[C@@]35CC[C@]12C
Solution: 2

Values compiled from ChEMBL document CHEMBL1143693.
